Please respond with reported Ki for every item in the list.
- study.target: human Kallikrein-6 (human, UniProt Q92876 22-244)
- assay.remarks: inhibition of hK6 catalytic activity, slow tight inhibition mechanism
Answer format: numeric, nM implied, no suffix.

Measured Ki, APPI-M17G/I18F/F34V (SEQ ID NO: 8), soluble (designed binder, also called APPI 3M; APPI^3M; not shown: AvrII site residues and C-terminal HIS6 tag) EVCSEQAETGPCRAGFSRWYFDVTEGKCAPFVYGGCGGNRNNFDTEEYCMAVCGSAI : 1.1

Measured Ki, APPI-WT (SEQ ID NO: 25), soluble, expressed in Pichia pastoris (other, Secreted from P. pastoris GS115, purified by nickel IMAC and gel filtration; also called WT APPI; not shown: N-terminal FLAG tag with the SnaBI/EcoRI-coded residues, and the C-terminal AvrII-coded residues plus His6) EVCSEQAETGPCRAMISRWYFDVTEGKCAPFFYGGCGGNRNNFDTEEYCMAVCGSAI : 2.24
